- Protocol: Cell Viability - SK-N-SH (AID 435);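 note: potency is the fitted concentration of half-maximal effect; compound exposure lasted 40 h at 37 °C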
- Particulars: SK-N-SH neuroblastoma cell viability qHTS
Results filed as inconclusive are left out. Calls of active or inactive are those of the source. Calls come from the whole dose curve.
Give one outcome, nothing more. List: 1 for active, 0 for inactive

Use the examples below as a reference point.
Just curious, what result did O=[N+]([O-])c1c(Cl)c(Cl)cc(Cl)c1Cl get here?
0

Please let me know the test result on file for CCCCCCCCc1ccc(O)cc1 .
0

Hey, what did the test say about CN(C)NC(=O)CCC(=O)O ?
0

Which outcome was entered for the compound O=C(O)C(Cl)Cl in this test?
0

Returns: the outcome recorded for CC(C)(O)C(=O)Nc1ccc([N+](=O)[O-])c(C(F)(F)F)c1 in this assay.
0

New cases:
I'd appreciate the recorded outcome for CC(=O)[O][Hg][c]1ccccc1 from this test.
1

Which outcome was entered for the compound c1cc2ccc3cccc4ccc(c1)c2c34 in this test?
0

Which outcome did this test record for the compound Nc1ccc(Cl)cc1 ?
0

What outcome does the record of this test show for Nc1ccc(Sc2ccc(N)cc2)cc1 ?
0

----------
- Assay System: Rap guanine nucleotide exchange factor 4 (Homo sapiens)
- Protocol: Confirmatory qHTS for antagonist of cAMP-regulated guanine nucleotide exchange factor 4 (EPAC2) (AID 1645885); note: nearly all actives have a fitted effect of over 25% in size; note: potency is the fitted concentration of half-maximal effect
- Particulars: EPAC2 Rap1B-BODIPY-GDP exchange fluorescence, biochemical; series mostly up to 114 µM
Records with an inconclusive call do not appear. The source made the active and inactive calls. Calls come from the whole dose curve; as a rule, active = well fitted inhibition curve with a large enough effect; inconclusive = small, poorly fitted or top-dose-only effect; inactive = no such curve, though single readings can be large or run the other way.
Observed Property: Potency

Examples with answers:
For CN(C)[C@@H]1C(=O)C(C(N)=O)=C(O)[C@@]2(O)C(=O)C3=C(O)c4c(O)cccc4[C@@](C)(O)[C@H]3[C@H](O)[C@@H]12 , write its Potency.
inactive

Give Potency for the following compound: Cc1nc(-c2ccc(-c3ccc(C(=O)N4CCc5cc6c(cc54)C4(CCN(C)CC4)CO6)cc3)c(C)c2)no1
inactive

Fill in reported Potency for this entry: CC1=NN=C(c2ccc(N)cc2)c2cc3c(cc2C1)OCO3
inactive

Report Potency for CCCN(CCC)c1c([N+](=O)[O-])cc(S(N)(=O)=O)cc1[N+](=O)[O-]
89.7 µM (active)

Okay, next one:
Recall and state the measured Potency for c1ccc(CCCN2CCN(CCOC(c3ccccc3)c3ccccc3)CC2)cc1 .
inactive

----------
- Protocol: qHTS of pediatric cancer cell lines to identify multiple opportunities for drug repurposing: Primary screen for Saos-2 cells (AID 1347097); note: nearly all actives have a fitted effect of over 40% in size
- Particulars: Saos-2 viability, CellTiter-Glo ATP luminescence, 48 h; series mostly up to 46 µM
- Method: Drug repurposing or repositioning has been offered as a strategy for drug development in oncology programs. This approach has special potential for childhood cancers and other rare or orphan diseases, where the expected return on new drug development has been a disincentive to pharmaceuticals. […] We employed a titration-based paradigm (quantitative high-throughput screening or qHTS), where all compounds were tested at multiple concentrations for their effect on cell viability. […]
Inconclusive results are not listed. Activity calls are given as the source filed them. Calls follow the shape of the dose curve; as a rule, active = well fitted cell-killing curve with a large enough effect; inconclusive = small, poorly fitted or top-dose-only effect; inactive = no such curve, though single readings can be large or run the other way.
Respond only with the outcome that fits, drawn from active, inactive

Illustrative cases are given below, each with its answer.
// param item: CN(C)[C@@H]1C(=O)C(C(N)=O)=C(O)[C@@]2(O)C(=O)C3=C(O)c4c(O)cccc4[C@@](C)(O)[C@H]3[C@H](O)[C@@H]12 ; yields the recorded call
inactive

For CCCC[N+]1(C)[C@H]2CC(OC(=O)[C@H](CO)c3ccccc3)C[C@H]1[C@H]1O[C@H]12 (stereo partly drawn) , what call appears in the results of this test?
inactive

// outcome(item) with item = CO[C@H]1CCC(O[C@H]2C[C@H]([C@]3(C)CC[C@]4(C[C@H](O)[C@@H](C)[C@@H]([C@@H](C)C=C(C)C(=O)[C@H](C)C[C@H](C)C(=O)O)O4)O3)O[C@]3(O[C@@H]([C@H]4O[C@@](O)(CO)[C@H](C)C[C@H]4C)C[C@H]3C)[C@H]2C)O[C@H]1C (stereo partly drawn)
active

Recorded test call requested for c1ccc2c(CN3CCNCC3)cccc2c1
inactive

// outcome(item) with item = COc1cccc2c1[C@]13CCN(CC4CC4)[C@H](C2)[C@]1(OC)CCC(=O)C3
inactive

Further cases:
Outcome logged for C[C@H]([C@H](O)CCC(C)(C)O)[C@H]1CC[C@@]2(O)C3=CC(=O)[C@@H]4C[C@@H](O)[C@@H](O)C[C@]4(C)[C@@H]3CC[C@]12C in this assay:
inactive

Record request — test call for CS(=O)(=O)c1ccc(C(=O)C2C(=O)CCCC2=O)c([N+](=O)[O-])c1
inactive

Per the records of this test, what outcome belongs to S=C(SSC(=S)N1CCCCC1)N1CCCCC1 ?
active

Name the outcome recorded for CC(=CCCC1=CCC(C2=CC(=O)OC2O)OC1O)CCC1=C(C)CCCC1(C)C (stereo not drawn) in the assay.
inactive

Hi, do you know how Nc1ccc(N=Nc2ccccc2)cc1 came out in this test?
inactive

----------
- Assay System: Nucleoprotein (Lymphocytic choriomeningitis virus (strain Armstrong)) (UniProt P09992)
- Sequence (P09992 whole entry, looked up): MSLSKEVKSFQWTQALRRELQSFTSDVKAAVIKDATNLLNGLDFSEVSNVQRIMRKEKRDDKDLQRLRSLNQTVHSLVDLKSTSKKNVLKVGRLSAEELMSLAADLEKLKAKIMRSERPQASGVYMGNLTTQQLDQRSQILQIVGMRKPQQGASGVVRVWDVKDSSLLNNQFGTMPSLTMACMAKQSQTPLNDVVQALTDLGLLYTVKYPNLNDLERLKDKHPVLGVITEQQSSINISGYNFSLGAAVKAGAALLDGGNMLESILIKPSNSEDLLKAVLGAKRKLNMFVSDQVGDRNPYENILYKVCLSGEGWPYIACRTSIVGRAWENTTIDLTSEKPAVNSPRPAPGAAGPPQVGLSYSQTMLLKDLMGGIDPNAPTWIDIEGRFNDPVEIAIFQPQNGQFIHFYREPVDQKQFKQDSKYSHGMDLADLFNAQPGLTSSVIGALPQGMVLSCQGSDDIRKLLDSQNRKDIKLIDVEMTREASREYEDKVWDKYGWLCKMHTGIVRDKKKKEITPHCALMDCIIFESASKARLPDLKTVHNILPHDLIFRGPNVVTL
- Protocol: qHTS for Inhibitors of the Functional Ribonucleoprotein Complex (vRNP) of Lymphocytic Choriomeningitis Arenaviruses (LCMV): LCMV Primary Screen - GLuc reporter signal (AID 1347086); note: nearly all actives have a fitted effect of over 70% in size
- Particulars: LCMV minigenome vRNP cell assay, Gaussia luciferase reporter; series mostly up to 57.5 µM
Records with an inconclusive call do not appear. Activity calls are given as the source filed them. Calls come from the whole dose curve.
Bench note: report the call from yes (active), no (inactive)

Some solved entries appear below for comparison.
What outcome does the record of this test show for CCCCOCCOc1nc(-c2ccc(C(=O)O)c(F)c2)sc1C ?
no

Check the results log: what was the call for CO[C@H]1C=CC=C(C)C(=O)NC2=CC(=O)C(NCCN(C)C)=C(C[C@@H](C)C[C@H](OC)[C@@H](O)[C@@H](C)C=C(C)[C@@H]1OC(N)=O)C2=O ?
yes

Short answer needed: outcome of this test for COc1ccc(CCN(C)CCCOc2ccc(S(=O)(=O)c3[nH]c4ccccc4c3C(C)C)cc2)cc1OC ?
no

Next:
Recorded test call requested for O=C(O)c1ccc2cc(-c3ccc(O)c(C45CC6CC(CC(C6)C4)C5)c3)ccc2c1
no

So what was the verdict on Cc1ccc(C(=O)Nc2cccc(C(F)(F)F)c2)cc1-c1ccc2nc(NCCN3CCOCC3)ncc2c1 in this test?
yes

Record lookup: outcome of this test for CCC(=O)O[C@@H]1C=C2CCC3C(CCC4(C)C3CC[C@@H]4OC(=O)CC)C2CC1 (stereo partly drawn) ?
no

What did the test return for CCN1C[C@]2(OC(=O)c3ccccc3NC(C)=O)CC[C@H](OC)[C@@]34[C@H]5CC6[C@@H](OC)C[C@](O)(C(C[C@@H]23)[C@@H]14)[C@@]5(O)[C@@H]6OC ?
no

Given Fc1ccc(Cl)cc1-c1nc(Nc2ccncc2)c2nccnc2n1 , state the outcome it received in this test.
no

----------
- Assay System: Cytochrome P450 2C9 (Homo sapiens) (UniProt P11712)
- Sequence (P11712 whole entry, looked up): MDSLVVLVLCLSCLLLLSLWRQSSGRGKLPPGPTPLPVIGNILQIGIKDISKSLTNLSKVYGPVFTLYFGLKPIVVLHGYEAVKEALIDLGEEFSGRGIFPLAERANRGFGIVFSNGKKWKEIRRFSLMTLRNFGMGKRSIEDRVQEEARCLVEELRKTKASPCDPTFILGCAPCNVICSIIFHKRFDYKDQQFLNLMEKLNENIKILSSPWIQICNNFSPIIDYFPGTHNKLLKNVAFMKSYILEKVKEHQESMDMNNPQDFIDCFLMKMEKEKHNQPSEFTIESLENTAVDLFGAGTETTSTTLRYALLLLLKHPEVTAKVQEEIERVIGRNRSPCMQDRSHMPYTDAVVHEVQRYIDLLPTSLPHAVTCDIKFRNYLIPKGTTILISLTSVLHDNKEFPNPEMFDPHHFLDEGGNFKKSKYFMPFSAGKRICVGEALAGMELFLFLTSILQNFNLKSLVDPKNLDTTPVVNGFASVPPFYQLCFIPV
- Protocol: qHTS Assay for Inhibitors and Substrates of Cytochrome P450 2C9 (AID 883); note: nearly all actives have a fitted effect of over 60% in size
- Particulars: recombinant CYP2C9, luciferin-H luminescence, 60 min; series mostly up to 57.1 µM
Records with an inconclusive call do not appear. Active and inactive are the calls of the source. Calls follow the shape of the dose curve; as a rule, active = well fitted inhibition curve with a large enough effect; inconclusive = small, poorly fitted or top-dose-only effect; inactive = no such curve, though single readings can be large or run the other way.
The reply should be one of these categories: yes (1) = active, no (0) = inactive

The following compounds have reported results that may help.
Call for entry O=c1cccc2n1CC1CNC[C@H]2C1 :
no (0)

Just curious, what result did CC(C)c1ccc2c(c1)c(SC(C)(C)C)c(CC(C)(C)C(=O)O)n2Cc1ccc(Cl)cc1 get here?
yes (1)

Lab log entry: Cn1cnc(CCN)c1 — outcome as called in the assay?
no (0)

More entries:
What did the test return for CC(=O)NCCc1c[nH]c2ccccc12 ?
no (0)

Entry Cc1nccc2c1[nH]c1ccccc12 : call = ?
no (0)

----------
Measured parasite growth remaining, % of DMSO control (lower = more inhibition), listed per entry for reference.
- Protocol: qHTS profiling of the MIPE4 collection as inhibitors of Plasmodium falciparum (DD2) proliferation (AID 743345)
- Particulars: P. falciparum Dd2 in erythrocytes, SYBR Green DNA, 72 h; at 28.5 µM (top of the series) unless noted
Kindly answer with a numeric value in %, unit omitted.

Look over these answered cases.
Note parasite growth remaining, % of DMSO control (lower = more inhibition) for the molecule shown: COC1=CC(C)=C[C@@H](C)[C@@H](O)[C@@H](C)CC(C)=CC=C[C@H](OC)[C@H]([C@@H](C)[C@@H](O)[C@H](C)[C@@]2(O)C[C@@H](O)[C@H](C)[C@@H](C(C)C)O2)OC1=O
6.47

Give the value of parasite growth remaining, % of DMSO control (lower = more inhibition) reported for the following: Cc1c(N)nc([C@H](CC(N)=O)NC[C@@H](N)C(N)=O)nc1C(=O)N[C@H](C(=O)N[C@@H](C)[C@H](O)[C@@H](C)C(=O)N[C@@H](C(=O)NCCc1nc(-c2nc(C(=O)NCCC[S+](C)C)cs2)cs1)[C@@H](C)O)C(O[C@H]1O[C@H](CO)[C@H](O)[C@@H](O)[C@@H]1O[C@H]1O[C@H](CO)[C@@H](O)[C@H](OC(N)=O)[C@H]1O)c1cnc[nH]1 (some centres undefined)
9.76

Give parasite growth remaining, % of DMSO control (lower = more inhibition) for the following molecule: O=C1CCC[C@@H]2[C@H]3CCCN4CCC[C@@H](CN12)[C@@H]34
97.9

Here is the next item to consider.
Please report the measured parasite growth remaining, % of DMSO control (lower = more inhibition) for COc1ccc(N(C(=O)Oc2c(C)cccc2C)c2ccnc(Nc3ccc(N4CCN(C)CC4)cc3)n2)c(OC)c1
6.94
